experiment-description: in vitro
Assay type: cell-based
cond: human; replicon cells, 3 days culture with compound, Cell Counting Kit 8, absorbance 450 nm; read-out: Cytotoxicity CC50
Experimental: A construct was prepared in which a luciferase gene derived from firefly was introduced as a reporter gene in HCV-RNA to assay the number of copies of HCV-RNA. […] Namely, after adding 100 μl of reagent per well, mixing by a pipette 3 to 4 times and then allowing to stand for 5 minutes, luminescence was measured with the 1450 MicroBeta TRILUX (Wallac). […]
Task for the reader: assign each of the following compounds its reported CC50.

Inquiry: Annotate the compound CCCCCCCC(=O)CCCCCC/C=C/[C@H](C(=O)N[C@@H](Cc1ccc(Oc2ccc(C(F)(F)F)cc2)cc1)C(=O)O)[C@@](O)(CC(=O)O)C(=O)O [Compound 55] with its measured CC50.
Reply text: > 1 µM

Inquiry: Annotate the compound CCCCCCCC(=O)CCCCCC/C=C/[C@H](C(=O)N[C@@H](Cc1ccc(C)cc1)C(=O)O)[C@@](O)(CC(=O)O)C(=O)O [Compound 16] with its measured CC50.
Reply text: > 5 µM

Inquiry: Annotate the compound CCCCCCCC(=O)CCCCCC/C=C/[C@H](C(=O)N[C@@H](Cc1ccc(OC2CCN(C)CC2)cc1)C(=O)O)[C@@](O)(CC(=O)O)C(=O)O [Compound 83] with its measured CC50.
Reply text: > 1 µM

Inquiry: Annotate the compound CCCCCCCC(=O)CCCCCC/C=C/[C@H](C(=O)N[C@@H](Cc1ccc(OCCN2CCOCC2)cc1)C(=O)O)[C@@](O)(CC(=O)O)C(=O)O [Compound 86] with its measured CC50.
Reply text: > 1 µM

Inquiry: Annotate the compound CCCCCCCC(=O)CCCCCC/C=C/[C@H](C(=O)N[C@@H](Cc1ccc(-c2cccc(Cl)c2)cc1)C(=O)O)[C@@](O)(CC(=O)O)C(=O)O [Compound 38] with its measured CC50.
Reply text: > 1 µM

Inquiry: Annotate the compound CCCCCCCC(=O)CCCCCC/C=C/[C@H](C(=O)N[C@@H](Cc1ccc(-c2ccsc2)cc1)C(=O)O)[C@@](O)(CC(=O)O)C(=O)O [Compound 31] with its measured CC50.
Reply text: > 1 µM

====

Task for the reader: assign each of the following compounds its reported CC50.
experiment-description: in vitro
Type: cell-based
cond: human; replicon cells, 3 days culture with compound, Cell Counting Kit 8, absorbance 450 nm; read-out: Cytotoxicity CC50

Inquiry: Annotate the compound CCCCCCCC(=O)CCCCCC/C=C/[C@H](C(=O)N[C@@H](Cc1ccc(N=[N+]=[N-])cc1)C(=O)O)[C@@](O)(CC(=O)O)C(=O)O [Compound 90] with its measured CC50.
Reply text: > 1 µM

Inquiry: Annotate the compound CCCCCCCC(=O)CCCCCC/C=C/[C@H](C(=O)N[C@@H](Cc1ccc(-c2c(C)noc2C)cc1)C(=O)O)[C@@](O)(CC(=O)O)C(=O)O [Compound 79] with its measured CC50.
Reply text: > 1 µM

Inquiry: Annotate the compound CCCCCCCC(=O)CCCCCC/C=C/[C@H](C(=O)NC(Cc1ccc(OCCCC)cc1)C(=O)O)[C@@](O)(CC(=O)O)C(=O)O (stereo partly drawn) [Compound 40] with its measured CC50.
Reply text: > 1 µM

Inquiry: Annotate the compound CCCCCC(=O)CCCCCCCC/C=C/[C@H](C(=O)N[C@@H](Cc1ccc(OCCC(C)C)cc1)C(=O)O)[C@@](O)(CC(=O)O)C(=O)O [Compound 44] with its measured CC50.
Reply text: > 1 µM

Inquiry: Annotate the compound CCCCCCCC(=O)CCCCCC/C=C/[C@H](C(=O)N[C@@H](Cc1ccc(OCCCN2CCN(C)CC2)cc1)C(=O)O)[C@@](O)(CC(=O)O)C(=O)O [Compound 89] with its measured CC50.
Reply text: > 1 µM

Inquiry: Annotate the compound CCCCCCCC(=O)CCCCCC/C=C/[C@H](C(=O)N[C@@H](Cc1ccc(OC)c(OC)c1)C(=O)O)[C@@](O)(CC(=O)O)C(=O)O [Compound 23] with its measured CC50.
Reply text: > 1 µM
